- TARGET_OR_SYSTEM: GABAA receptor
- PROCEDURE_TEXT: [35S]-TBPS binding assay, rat brain cortical membranes, in the presence of GABA
- MEASUREMENT_CONDITIONS: inhibition of 3 nM [35S]-TBPS binding, 5 mM GABA, 90 min, room temp
Items are presented alongside their recorded IC50.

Answered cases to consult:
INSERT INTO measurements (substance_smiles, target_or_system, assay_endpoint, result_value) VALUES
  ('C[C@@]1(O)CC[C@H]2[C@H](CC[C@@H]3[C@@H]2CC[C@]2(C)[C@@H](CNC(=O)c4ccccn4)CCC[C@@H]32)C1', 'GABAA receptor', 'IC50', '100 to 1000 nM'),
  ('CCC[C@@]1(O)CC[C@@]2(C)[C@@H](CC[C@@H]3[C@@H]2CC[C@]2(C)[C@@H]([C@@H](C)Cn4nnnc4C)CCC[C@@H]32)C1', 'GABAA receptor', 'IC50', '100 to 1000 nM');

From here, focus on the item given below.
Param item = `C[C@H](Cn1cc(C#N)cn1)[C@H]1CC[C@H]2[C@@H]3CC=C4CC[C@](C)(O)CC[C@]4(C)[C@H]3CC[C@]12C` ; retrieve measured IC50.
< 100 nM

###

Items are presented alongside their recorded pIC50.
- TARGET_OR_SYSTEM: GABAA receptor
- PROCEDURE_TEXT: [35S]-TBPS binding assay, rat brain cortical membranes, in the presence of GABA
- MEASUREMENT_CONDITIONS: inhibition of 3 nM [35S]-TBPS binding, 5 mM GABA, 90 min, room temp
- Method: [35S]-t-Butylbicyclophosphorothionate (TBPS) binding assays using rat brain cortical membranes in the presence of 5 mM GABA has been described (Gee et al, J. Pharmacol. Exp. Ther. 1987, 241, 346-353; Hawkinson et al, Mol. Pharmacol. 1994, 46, 977-985; Lewin, A.H et al., Mol. Pharmacol. 1989, 35, 189-194). Briefly, cortices are rapidly removed following decapitation of carbon dioxide-anesthetized Sprague-Dawley rats (200-250 g). […]
pIC50: −log10 of the molar value.

INSERT INTO measurements (compound, result_value) VALUES
  ('C[C@H](Nc1cccc(C#N)c1)[C@H]1CCC[C@H]2[C@@H]3CC[C@@H]4C[C@](C)(O)CC[C@@H]4C3CC[C@]12C (stereo partly drawn)', '> 7.00'),
  ('CC[C@]12CC[C@@](C)(O)C[C@H]1CC[C@H]1[C@@H]3CCC[C@H](CNC(=O)c4ccccc4)[C@@]3(C)CC[C@@H]12', '6.00 to 7.00');

Param item = `C[C@@H](Cn1cc(C#N)cn1)[C@H]1CC[C@H]2[C@@H]3CC[C@H]4CC[C@](C)(O)CC[C@]4(C)[C@H]3CC[C@]12C` ; retrieve measured pIC50.
> 7.00

###

- TARGET_OR_SYSTEM: GABAA receptor
- PROCEDURE_TEXT: [35S]-TBPS binding assay, rat brain cortical membranes, in the presence of GABA
- MEASUREMENT_CONDITIONS: inhibition of 3 nM [35S]-TBPS binding, 5 mM GABA, 90 min, room temp
pIC50: −log10 of the molar value.
Items are presented alongside their recorded pIC50.

Answered cases to consult:
INSERT INTO measurements (molecule, assay_endpoint, result_value) VALUES
  ('C[C@H](NC(=O)c1ccc(C#N)cc1)[C@H]1CCC[C@H]2[C@@H]3CC[C@@H]4C[C@](C)(O)CC[C@@H]4C3CC[C@]12C (some centres unmarked) [Example 42]', 'pIC50', '6.00 to 7.00'),
  ('C[C@@]1(O)CC[C@H]2[C@H](CC[C@@H]3[C@@H]2CC[C@]2(C)[C@@H](CNC(=O)c4ccccc4)CCC[C@@H]32)C1 [Example 24]', 'pIC50', '6.00 to 7.00'),
  ('COC[C@@]1(O)CC[C@H]2[C@H](CC[C@@H]3[C@@H]2CC[C@]2(C)[C@@H]([C@H](C)Cn4cc(C#N)cn4)CCC[C@@H]32)C1 [Example 2]', 'pIC50', '> 7.00'),
  ('CC[C@]12CC[C@H]3[C@@H](CC[C@@H]4C[C@](C)(O)CC[C@@H]43)[C@@H]1CCC[C@@H]2[C@H](C)NC(=O)c1ccc(C#N)cc1 [Example 54]', 'pIC50', '6.00 to 7.00');

From here, focus on the item given below.
Param item = CCOC[C@@]1(O)CC[C@@H]2C3CC[C@]4(C)[C@@H]([C@@H](C)NC(=O)c5ccc(C#N)cc5F)CCC[C@H]4[C@@H]3CC[C@@H]2C1 (some centres unmarked) [Example 56] ; retrieve measured pIC50.
6.00 to 7.00

###

- TARGET_OR_SYSTEM: GABAA receptor
- PROCEDURE_TEXT: [35S]-TBPS binding assay, rat brain cortical membranes, in the presence of GABA
- MEASUREMENT_CONDITIONS: inhibition of 3 nM [35S]-TBPS binding, 5 mM GABA, 90 min, room temp
ASSAY_ENDPOINT: IC50

Answered cases to consult:
INSERT INTO assay_data (compound, assay_endpoint, result_value) VALUES
  ('C[C@@H](Cn1cc(C#N)cn1)[C@H]1CCC[C@H]2[C@@H]3CC[C@@H]4C[C@](C)(O)CC[C@@H]4[C@H]3CC[C@]12C', 'IC50', '< 100 nM'),
  ('CC[C@]12CC[C@@](C)(O)C[C@H]1CC[C@H]1[C@@H]3CCC[C@H](CN(C)S(=O)(=O)c4ccccc4)[C@@]3(C)CC[C@@H]12', 'IC50', '< 100 nM'),
  ('CCOC[C@@]1(O)CC[C@@H]2C3CC[C@]4(C)[C@@H]([C@H](C)NC(=O)c5ccc(F)cc5F)CCC[C@H]4[C@@H]3CC[C@@H]2C1 (some centres unmarked)', 'IC50', '100 to 1000 nM'),
  ('COC[C@@]1(O)CC[C@@H]2C3CC[C@]4(C)[C@@H]([C@H](C)NC(=O)c5ccc(F)cc5)CCC[C@H]4[C@@H]3CC[C@@H]2C1 (some centres unmarked)', 'IC50', '100 to 1000 nM'),
  ('CCC[C@@]1(O)CC[C@H]2[C@@H](CC[C@@H]3[C@@H]2CC[C@]2(C)[C@@H]([C@H](C)Cn4nnnc4C)CCC[C@@H]32)C1', 'IC50', '≥ 1000 nM');

Param item = COC[C@@]1(O)CC[C@@H]2C3CC[C@]4(C)[C@@H]([C@@H](C)NC(=O)c5ccc(F)cc5)CCC[C@H]4[C@@H]3CC[C@@H]2C1 (some centres unmarked) ; retrieve measured IC50.
100 to 1000 nM

Follow-up item: C[C@@H](Nc1cccc(C#N)c1)[C@H]1CCC[C@H]2[C@@H]3CC[C@@H]4C[C@](C)(O)CC[C@@H]4C3CC[C@]12C (some centres unmarked)
< 100 nM

Follow-up item: `Cn1ccc(C(=O)NC[C@H]2CCC[C@H]3[C@@H]4CC[C@@H]5C[C@](C)(O)CC[C@@H]5[C@H]4CC[C@]23C)n1`
100 to 1000 nM

Follow-up item: `C[C@@]1(O)CC[C@H]2[C@H](CC[C@@H]3[C@@H]2CC[C@]2(C)[C@@H](CNC(=O)c4cccc(C#N)c4)CCC[C@@H]32)C1`
100 to 1000 nM

Follow-up item: `C[C@H](Cn1cc(C#N)cn1)[C@H]1CCC[C@H]2[C@@H]3CC[C@@H]4C[C@](C)(O)CC[C@@H]4[C@H]3CC[C@]12C`
< 100 nM

Follow-up item: `CCC[C@@]1(O)CC[C@H]2[C@@H](CC[C@@H]3[C@@H]2CC[C@]2(C)[C@@H]([C@@H](C)Cn4nnc(C)n4)CCC[C@@H]32)C1`
100 to 1000 nM

###

- TARGET_OR_SYSTEM: GABAA receptor
- PROCEDURE_TEXT: [35S]-TBPS binding assay, rat brain cortical membranes, in the presence of GABA
- MEASUREMENT_CONDITIONS: inhibition of 3 nM [35S]-TBPS binding, 5 mM GABA, 90 min, room temp
pIC50: −log10 of the molar value.
Items are presented alongside their recorded pIC50.

Answered cases to consult:
INSERT INTO results (compound, target_or_system, assay_endpoint, result_value) VALUES
  ('C[C@H](Nc1ccc(C#N)cc1)[C@H]1CCC[C@H]2[C@@H]3CC[C@@H]4C[C@](C)(O)CC[C@@H]4C3CC[C@]12C (stereo partly drawn) [Example 50]', 'GABAA receptor', 'pIC50', '> 7.00'),
  ('CCC[C@@]1(O)CC[C@H]2[C@@H](CC[C@@H]3[C@@H]2CC[C@]2(C)[C@@H]([C@@H](C)Cn4nnnc4C)CCC[C@@H]32)C1 [Example 8]', 'GABAA receptor', 'pIC50', '6.00 to 7.00');

From here, focus on the item given below.
Param item = C[C@@H](NC(=O)c1ccc(C#N)cc1)[C@H]1CCC[C@H]2[C@@H]3CC[C@@H]4C[C@](C)(O)CC[C@@H]4C3CC[C@]12C (stereo partly drawn) [Example 43] ; retrieve measured pIC50.
6.00 to 7.00
